- Tested on: NCI-H23 complex spheroids with HUVEC/MSC, viability
- protocol: Anticancer human tumor NCI-H23 cell line growth inhibition [RAS]; active = viability on the fitted dose curve at most 10% of control; inactive = the rest;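 note: spheroids exposed to compound for 7 days; 100% = DMSO vehicle control viability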
- measurement_parameters: second compound 0.1 µM; first compound 10 µM
Could you please pick one outcome from this set? 1 (yes) for active, 0 (no) for inactive

Previously resolved entries follow.
compound="Cc1nc(N2CCC3(CC2)COC(C)C3N)c(CO)nc1Sc1ccnc(N)c1Cl (centres undefined) + C=CC(=O)N1CCN(c2nc(OCC3CCCN3C)nc3c(F)c(-c4nc(N)cc(C)c4C(F)(F)F)c(Cl)cc23)C(C)C1" category="0 (no)"
compound="CCC(CC)c1cc(NC2CCC(N)C2)n2nccc2n1 (centres undefined) + C=CC(=O)N1CCN(c2nc(OCC3CCCN3C)nc3c(F)c(-c4nc(N)cc(C)c4C(F)(F)F)c(Cl)cc23)C(C)C1" category="1 (yes)"
compound="CCC(CC)c1cc(NC2CCC(N)C2)n2nccc2n1 (centres undefined) + C#Cc1c(F)ccc2cc(O)cc(-c3ncc4c(N5CC6CCC(C5)N6)nc(OCC56CCCN5CC(F)C6)nc4c3F)c12" category="1 (yes)"

Next, consider the following compound.
QUERY: For this compound, state the assay outcome: CC(Nc1ccc2c(c1)OCCn1cc(N3C(=O)OCC3C(F)F)nc1-2)C(N)=O (centres undefined) + C=CC(=O)N1CCN(c2nc(OCC3CCCN3C)nc3c(F)c(-c4nc(N)cc(C)c4C(F)(F)F)c(Cl)cc23)C(C)C1
RESULT: 0 (no)

###

- Tested on: NCI-H23 complex spheroids with HUVEC/MSC, viability
- protocol: Anticancer human tumor NCI-H23 cell line growth inhibition [RAS];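 note: spheroids exposed to compound for 7 days; 100% = DMSO vehicle control viability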
- measurement_parameters: second compound 0.1 µM; first compound 0.000949 µM; stronger effect = lower value
metric: viability, T/C

Observe how each entry below is paired with its result.
compound="CCc1c2c(nc3ccc(O)cc13)-c1cc3c(c(=O)n1C2)COC(=O)[C@]3(O)CC + C#Cc1c(F)ccc2cc(O)cc(-c3ncc4c(N5CC6CCC(C5)N6)nc(OCC56CCCN5CC(F)C6)nc4c3F)c12" metric="viability, T/C" result=87.8%
compound="CC1(C)CCC(Nc2ncc(C(F)(F)F)c(-c3c[nH]c4c(P(C)(C)=O)c(C#N)ccc34)n2)CN1 (centres undefined) + C#Cc1c(F)ccc2cc(O)cc(-c3ncc4c(N5CC6CCC(C5)N6)nc(OCC56CCCN5CC(F)C6)nc4c3F)c12" metric="viability, T/C" result=105%
compound="CCc1c2c(nc3ccc(O)cc13)-c1cc3c(c(=O)n1C2)COC(=O)[C@]3(O)CC + C=CC(=O)N1CCN(c2nc(OCC3CCCN3C)nc3c(F)c(-c4nc(N)cc(C)c4C(F)(F)F)c(Cl)cc23)C(C)C1" metric="viability, T/C" result=32.5%

Now turn to the next compound.
QUERY: Quote viability, T/C with test system NCI-H23 complex spheroids with HUVEC/MSC, viability for CC1(C)CCC(Nc2ncc(C(F)(F)F)c(-c3c[nH]c4c(P(C)(C)=O)c(C#N)ccc34)n2)CN1 (centres undefined) + C=CC(=O)N1CCN(c2nc(OCC3CCCN3C)nc3c(F)c(-c4nc(N)cc(C)c4C(F)(F)F)c(Cl)cc23)C(C)C1
RESULT: 29.8%

###

- Tested on: NCI-H23 complex spheroids with HUVEC/MSC, viability
- protocol: Anticancer human tumor NCI-H23 cell line growth inhibition [RAS];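 note: spheroids exposed to compound for 7 days; 100% = DMSO vehicle control viability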
- measurement_parameters: second compound 0.0316 µM; first compound 0.0316 µM; stronger effect = lower value
Mark 1 only when viability, T/C stays strictly below 70%. Values equal to the cut-off are 0.

Here's what some known entries look like.
compound="CC(C)NCC(C(=O)N1CCN(c2ncnc3c2C(C)CC3O)CC1)c1ccc(Cl)cc1 (configuration not stated) + C=CC(=O)N1CCN(c2nc(OCC3CCCN3C)nc3c(F)c(-c4nc(N)cc(C)c4C(F)(F)F)c(Cl)cc23)C(C)C1" system_under_test="NCI-H23 complex spheroids with HUVEC/MSC, viability" category=1
compound="CCC(CC)c1cc(NC2CCC(N)C2)n2nccc2n1 (configuration not stated) + C#Cc1c(F)ccc2cc(O)cc(-c3ncc4c(N5CC6CCC(C5)N6)nc(OCC56CCCN5CC(F)C6)nc4c3F)c12" system_under_test="NCI-H23 complex spheroids with HUVEC/MSC, viability" category=0
compound="C=CC(=O)N1CCN(c2nc(OCC3CCCN3C)nc3c(F)c(-c4nc(N)cc(C)c4C(F)(F)F)c(Cl)cc23)C(C)C1 (configuration not stated) + C#Cc1c(F)ccc2cc(O)cc(-c3ncc4c(N5CC6CCC(C5)N6)nc(OCC56CCCN5CC(F)C6)nc4c3F)c12" system_under_test="NCI-H23 complex spheroids with HUVEC/MSC, viability" category=1

QUERY: viability, T/C under 70%? Item: C=CC(=O)Nc1cc(Nc2nccc(-c3cn(C)c4ccccc34)n2)c(OC)cc1N(C)CCN(C)C + C=CC(=O)N1CCN(c2nc(OCC3CCCN3C)nc3c(F)c(-c4nc(N)cc(C)c4C(F)(F)F)c(Cl)cc23)C(C)C1
RESULT: 1

QUERY: I wonder whether Cc1nc(N2CCC3(CC2)COC(C)C3N)c(CO)nc1Sc1ccnc(N)c1Cl (configuration not stated) + C=CC(=O)N1CCN(c2nc(OCC3CCCN3C)nc3c(F)c(-c4nc(N)cc(C)c4C(F)(F)F)c(Cl)cc23)C(C)C1 has viability, T/C below 70%. Can you tell?
RESULT: 1

QUERY: For this compound, is viability, T/C lower than 70%? C[C@@H](NC(=O)c1ncnc(N)c1Cl)c1ncc(C(=O)Nc2cc(C(F)(F)F)c(Cl)cn2)s1 + C#Cc1c(F)ccc2cc(O)cc(-c3ncc4c(N5CC6CCC(C5)N6)nc(OCC56CCCN5CC(F)C6)nc4c3F)c12
RESULT: 0

QUERY: Threshold test, viability, T/C < 70%: CC(Nc1ccc2c(c1)OCCn1cc(N3C(=O)OCC3C(F)F)nc1-2)C(N)=O (configuration not stated) + C#Cc1c(F)ccc2cc(O)cc(-c3ncc4c(N5CC6CCC(C5)N6)nc(OCC56CCCN5CC(F)C6)nc4c3F)c12
RESULT: 0

QUERY: Say whether its viability, T/C is strictly beneath 70%. Entry: CC(Nc1ccc2c(c1)OCCn1cc(N3C(=O)OCC3C(F)F)nc1-2)C(N)=O (configuration not stated) + C=CC(=O)N1CCN(c2nc(OCC3CCCN3C)nc3c(F)c(-c4nc(N)cc(C)c4C(F)(F)F)c(Cl)cc23)C(C)C1
RESULT: 1

QUERY: Dear reviewer, please state whether CCN1CCN(Cc2ccc(Nc3ncc(F)c(-c4cc(F)c5nc(C)n(C(C)C)c5c4)n3)nc2)CC1 + C=CC(=O)N1CCN(c2nc(OCC3CCCN3C)nc3c(F)c(-c4nc(N)cc(C)c4C(F)(F)F)c(Cl)cc23)C(C)C1 has viability, T/C strictly beneath 70%.
RESULT: 1

###

- Tested on: NCI-H23 complex spheroids with HUVEC/MSC, viability
- protocol: Anticancer human tumor NCI-H23 cell line growth inhibition [RAS];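 note: spheroids exposed to compound for 7 days; 100% = DMSO vehicle control viability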
- measurement_parameters: second compound 0.0949 µM; first compound 0.1 µM; stronger effect = lower value
metric: viability, T/C

Worked set:
molecule="CCN1CCN(Cc2ccc(Nc3ncc(F)c(-c4cc(F)c5nc(C)n(C(C)C)c5c4)n3)nc2)CC1 + CCn1c(-c2cccnc2C(C)OC)c2c3cc(ccc31)N1CCOC(CC(NC(=O)C(C(C)C)N(C)C(=O)C3(F)CCN(C(=O)C#CC(C)(C)N(C)C)CC3)C(=O)N3CCCC(N3)C(=O)OCC(C)(C)C2)C1" metric="viability, T/C" result=13.2%
molecule="CC(C)NCC(C(=O)N1CCN(c2ncnc3c2C(C)CC3O)CC1)c1ccc(Cl)cc1 (centres undefined) + CCn1c(-c2cccnc2C(C)OC)c2c3cc(ccc31)N1CCOC(CC(NC(=O)C(C(C)C)N(C)C(=O)C3(F)CCN(C(=O)C#CC(C)(C)N(C)C)CC3)C(=O)N3CCCC(N3)C(=O)OCC(C)(C)C2)C1" metric="viability, T/C" result=26.8%
molecule="CC(=O)OC12COC1CC(O)C1(C)C(=O)C(O)C3=C(C)C(OC(=O)C(O)C(NC(=O)OC(C)(C)C)c4ccccc4)CC(O)(C(OC(=O)c4ccccc4)C21)C3(C)C (centres undefined) + CCn1c(-c2cc(N3CCN(C)CC3)cnc2C(C)OC)c2c3cc(ccc31)-c1csc(n1)CC(NC(=O)C1CC1C)C(=O)N1CCCC(N1)C(=O)OCC(C)(C)C2" metric="viability, T/C" result=10.6%

Moving on to another molecule below.
QUERY: State the measured viability, T/C (NCI-H23 complex spheroids with HUVEC/MSC, viability) of CCC(CC)c1cc(NC2CCC(N)C2)n2nccc2n1 (centres undefined) + CCn1c(-c2cccnc2C(C)OC)c2c3cc(ccc31)N1CCOC(CC(NC(=O)C(C(C)C)N(C)C(=O)C3(F)CCN(C(=O)C#CC(C)(C)N(C)C)CC3)C(=O)N3CCCC(N3)C(=O)OCC(C)(C)C2)C1
RESULT: 25.3%
